Items are presented alongside their recorded z-score.
experiment: splicing luciferase reporter signal modulators, primary screen, spliceosome inhibition project, cell-based, HEK293, splice +/- reporter (AID 1101); settings: luminescence, 24 h, higher = more signal, called active from +8 up or from −8 down;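 also: HEK293 cells carrying a splicing-competent luciferase reporter gene; test concentration not given here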
QUANTITY NAME: z-score

* O=C(NCC(F)(F)F)[C@@H]1c2ccccc2C(=O)N(Cc2ccccc2C(F)(F)F)[C@H]1c1ccc(CO)cc1 | -0.335
* CC(=O)NCCCC[C@@H]1NC(=O)[C@H]2C[C@@H](C(=O)NCCCC[N+](C)(C)C)[C@@H](c3cccc(OCCO)c3)N2C1=O | -0.307
* COC(=O)[C@@]1(Cc2ccc(OC)cc2)[C@H]2c3cc(C(=O)N(C)C)n(C[C@H](O)CO)c3C[C@H]2CN1C(=O)c1ccccc1 | -0.872
* OCCCC1=CC(c2ccc(CN3CCCC3)cc2)N(Cc2sc3ccccc3c2Cl)CC1 (stereo not drawn) | -1.07
* CCOC(=O)c1ccc(NC(=O)O[C@H]2[C@H](OC(=O)Nc3ccc4c(c3)OCO4)[C@@H](OC(=O)Nc3ccc4c(c3)OCO4)[C@@H](OC)O[C@@H]2CO)cc1 | -0.616
* C=C[C@@H](COC(C)=O)N(C(=O)OC(C)(C)C)S(=O)(=O)c1ccc(Br)cc1 | 0.446
* O=C(NCCCCCNC(=O)/C(Cc1ccccc1)=N/O)OCc1ccccc1 | -1.54
* COc1ccc([Si](C)(C)[C@@H]2[C@@H](CC(=O)N(CCO)Cc3ccccc3)O[C@]3(C(=O)N(Cc4cccc(N5CCOC5=O)c4)c4ccccc43)[C@H]2C)cc1 | -0.244
* CN(C)CCCNC(=O)[C@@]1(C)c2ccccc2C(=O)N(Cc2ccccc2)[C@H]1c1ccc(CO)cc1 | 0.711
* C=C(C)c1cc2c(c(CCCCCC)n1)[Si](C(C)C)(C(C)C)OC2 | -0.392
* C=CCC(OC(C)=O)[C@@H]1[C@@H](N(Cc2cc3ccccc3o2)C(=O)c2ccc(-c3ccccc3)cc2)c2cc(OCCCO)ccc2N1C(=O)c1ccc2ccccc2c1 (stereo partly drawn) | 0.416
* COc1ccc([Si](C)(C)[C@H]2[C@H](CCO)O[C@@]3(C(=O)N(Cc4cccc(N5C(=O)COc6ccccc65)c4)c4ccccc43)[C@@H]2C)cc1 | -2.17
* CC(C)(C)OC(=O)CC[C@]1(C(=O)NCc2ccccc2)N=C(c2ccc(OCCCO)cc2)O[C@H]1c1ccccc1CN=[N+]=[N-] | 0.22
* C=CCOC(=O)[C@H]1[C@@H]2C(=O)O[C@@H](c3ccccc3)[C@@H](c3ccccc3)N2[C@@H](c2ccc(OCCOC(=O)[C@H]3C[C@H]4C(=O)N[C@@H](CCCCNC(C)=O)C(=O)N4[C@H]3c3ccc(O)cc3)cc2)[C@]12C(=O)Nc1ccccc12 | -1.18
* COc1ccccc1CN1C(=O)c2ccccc2[C@](Cc2ccccc2I)(C(=O)NCC(F)(F)F)[C@@H]1c1ccc(CO)cc1 | 0.377
* CC(C)C(CO)N1C(=O)[C@@H]2C3C(=O)OCCC/C=C\[C@H]3OC23C=CCN(C(C)(C)C)C(=O)[C@@H]13 (stereo partly drawn) | 0.476
* CCOC(=O)c1ccc(NC(=O)O[C@H]2[C@H](OC(=O)Nc3ccc4c(c3)OCO4)[C@H](OC(=O)Nc3ccc4c(c3)OCO4)[C@@H](OC)O[C@@H]2CO)cc1 | 0.646
* Cc1ccc(S[C@]2(C(=O)O)CC(=O)N(Cc3cc(C(F)(F)F)cc(C(F)(F)F)c3)[C@@H]2c2ccc(CO)cc2)cc1 | -0.262
* CN(C)CCCNC(=O)[C@@H]1c2ccccc2C(=O)N(Cc2ccccc2Cl)[C@H]1c1ccc(CO)cc1 | -0.738
* COc1ccc([Si](C)(C)[C@@H]2[C@@H](CC(=O)N(CCO)Cc3ccccc3)O[C@]3(C(=O)N(Cc4cccc(N5C(=O)c6cccc7cccc5c67)c4)c4ccccc43)[C@H]2C)cc1 | -1.11
* COc1ccc(CCN2C(=O)[C@@]3(Cc4ccccc42)c2ccccc2C(=O)N(Cc2ccccc2OC)[C@H]3c2ccc(CO)cc2)cc1 | -0.942
* COC(=O)c1c(CC[C@@H](CO)NC(=O)N2CCC[C@H]2Cn2cc(Cc3ccccc3)nn2)oc(C(C)=O)c1C(=O)OC | -0.311
* COc1ccc(CCNC(=O)[C@@H]2c3ccccc3C(=O)N(Cc3cc(C(F)(F)F)cc(C(F)(F)F)c3)[C@H]2c2ccc(CO)cc2)cc1 | -0.082
* COCCCNC(=O)[C@@]1(Cc2ccccc2N=[N+]=[N-])N=C(c2ccc(OCCCO)cc2)O[C@H]1c1ccccc1 | 0.181
* C=C(/C(=C/C[C@@H](OC(C)=O)c1cccc(OCCO)c1)c1cc(C(=O)OC)ccc1OC)C(C)C | -0.0584
* [N-]=[N+]=NCc1ccccc1[C@@H]1OC(c2ccc(OCCCO)cc2)=N[C@]1(CCS(=O)(=O)c1ccccc1)C(=O)NCC(O)CO (stereo partly drawn) | -1.33
* COC(=O)[C@@]1(Cc2ccc(OC)cc2)[C@@H]2C(=CC(=O)[C@H]2CC(=O)C(=O)N(C)C)CN1C(=O)c1ccccc1 | -2.59
* O=C1O[C@H](c2ccccc2)[C@H](c2ccccc2)N2[C@H]1[C@@H](C(=O)N1CCN(c3ncccn3)CC1)[C@]1(C(=O)Nc3ccc(C#CC4(O)CCCCCC4)cc31)[C@H]2c1ccc(OCCO)cc1 | -0.604
